Hey, just so you know, these numbers are from PubChem BioAssay (NCATS).

Test system: CP217
assay.info: qHTS profiling for inhibitors of Plasmodium falciparum proliferation (AID 504749); also: nearly all actives have a fitted effect of over 60% in size
test.context: P. falciparum in erythrocytes, SYBR Green DNA, 72 h; series mostly up to 28.7 µM
Records with an inconclusive call do not appear. Activity calls are given as the source filed them. Calls follow the shape of the dose curve; as a rule, active = well fitted inhibition curve with a large enough effect; inconclusive = small, poorly fitted or top-dose-only effect; inactive = flat fitted curve, though single readings scatter.
reported.endpoint: outcome

| molecule | reported.endpoint | meas.value |
| --- | --- | --- |
| CCCc1nc(C(C)(C)O)c(C(=O)OCc2oc(=O)oc2C)n1Cc1ccc(-c2ccccc2-c2nn[nH]n2)cc1 | outcome | inactive |
| CC1C(=O)CC2C3(C)CCC2(C(C)C(=O)O)C(=O)C13 (stereo not drawn) | outcome | inactive |
| Cc1ncc(COP(=O)(O)O)c(CN)c1O | outcome | inactive |

---

Test system: 3D7
assay.info: qHTS profiling for inhibitors of Plasmodium falciparum proliferation (AID 504749); also: nearly all actives have a fitted effect of over 60% in size
test.context: P. falciparum in erythrocytes, SYBR Green DNA, 72 h; series mostly up to 28.7 µM
Results filed as inconclusive are left out. Calls of active or inactive are those of the source. Calls follow the shape of the dose curve; as a rule, active = well fitted inhibition curve with a large enough effect; inconclusive = small, poorly fitted or top-dose-only effect; inactive = flat fitted curve, though single readings scatter.
Return exactly one item of active, inactive

| molecule | subject.of.test | class.assignment |
| --- | --- | --- |
| [O]=[Bi][O]C(=O)[O][Bi]=[O] | 3D7 | inactive |
| Nc1nc(=O)n([C@@H]2CS[C@H](CO)O2)cc1F | 3D7 | inactive |
| CCCCCCCCCCCCCCCCCCCCCC(=O)Nc1ccn([C@@H]2O[C@H](CO)[C@@H](O)[C@@H]2O)c(=O)n1 | 3D7 | inactive |

Test call for this molecule, please: CCN(CC)CCCC(C)Nc1cc(/C=C/c2ccccc2Cl)nc2cc(Cl)ccc12 (configuration not stated)
active

Please state the recorded outcome for this molecule: CO/N=C(/C(=O)N[C@@H]1C(=O)N2C(C(=O)O)=C(COC(N)=O)CS[C@H]12)c1ccco1
inactive

Hey, what did the test say about COc1ccc2c(=O)c(C)c(-c3ccccc3)oc2c1CN(C)C ?
inactive

Dear colleague, could you share the recorded outcome for S=C=Nc1ccc(N=C=S)cc1 when you have a moment?
inactive

Per the assay record, what outcome was assigned to Cc1ccc(C(C)(C)c2ccc(C)cc2)cc1 ?
inactive

Name the outcome recorded for O=P(O)(O)CP(=O)(O)O in the assay.
inactive

Could you please tell me the result logged for CCSc1ccc2c(c1)N(CCCN1CCN(C)CC1)c1ccccc1S2 in this assay?
inactive

Check the results log: what was the call for COC(=O)C(CN)c1c[nH]c2ccc(OC)cc12 (configuration not stated) ?
inactive

---

For each record, write down the corresponding activity, negative = cell killing.
assay.info: Drug repurposing screens with cells derived from glioblastoma tumor samples (AID 1345199); also: % is scaled to controls: 0 for no effect and ±100 for the full control effect; nearly all actives have a fitted effect of over 40% in size
test.context: GBM patient neurospheres viability, ATP luminescence, 48 h; at 45.9 µM (top of the series); tumour line B
Results filed as inconclusive are left out.
Numbers only, in %.

| molecule | quantity.unit | activity, negative = cell killing |
| --- | --- | --- |
| CNC(C)CCC=C(C)C (stereo not given) | % | -23.7 |
| C=CCCCCCCCCC(=O)OC | % | -4.31 |
| CC(=O)Oc1cccc2c1C(=O)c1c(OC(C)=O)cc(C(=O)O)cc1C2=O | % | -17.6 |
| CC(C)[C@@H]1CC[C@@H](C)C[C@H]1O | % | -7.27 |

Now for the molecule whose activity, negative = cell killing we want.
Name the reported activity, negative = cell killing value associated with the molecule CCCCCCCCCCCCCCCCCC[N+](C)(C)CCC[Si](OC)(OC)OC
-16.4
